B1: OR4K15 (parent)
chain: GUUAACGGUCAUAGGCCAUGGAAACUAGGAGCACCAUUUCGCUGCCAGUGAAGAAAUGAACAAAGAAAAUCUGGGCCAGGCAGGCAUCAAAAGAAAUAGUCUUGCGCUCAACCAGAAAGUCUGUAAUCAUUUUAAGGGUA

variants of: B1; assay: self-cleavage, relative activity (ratio to wild type); higher = more cleavage; in vitro, sequencing; the parent is a self-cleaving ribozyme
Outcome: yes for self-cleavage of at least 0.9; no for anything lower.

For this variant, is measured self-cleavage 0.9 or higher? A54G C81U
no

For this variant, is measured self-cleavage 0.9 or higher? G15C U39C
yes

For this variant, is measured self-cleavage 0.9 or higher? A11U G58A
no

For this variant, is measured self-cleavage 0.9 or higher? A11U A23G
no

For this variant, is measured self-cleavage 0.9 or higher? U26C U122C
no

For this variant, is measured self-cleavage 0.9 or higher? A18G
yes

For this variant, is measured self-cleavage 0.9 or higher? A56G A66C
yes

For this variant, is measured self-cleavage 0.9 or higher? U9C C112A
no

---
For this variant, is measured self-cleavage 0.9 or higher? A47G A68G
yes
